- system: cerebral receiving sites of the benzodiazepines
- assayName: Displacement of tritiated Diazepam from its binding site (method of MOHLER et al.)
- conditions: displacement of tritiated Diazepam (3H Diazepam) from its binding site
Ki by entry:
measurementLabel: Ki

[
  {
    "compound": "Clc1ccc(-c2cc(CCC3CCNCC3)c3ccccc3n2)cc1",
    "measurementLabel": "Ki",
    "valueReported": "400 nM"
  },
  {
    "compound": "COc1ccc2nc(-c3ccccc3)cc(CCC3CCNCC3)c2c1",
    "measurementLabel": "Ki",
    "valueReported": "11000 nM"
  },
  {
    "compound": "C=C[C@H]1CNCC[C@H]1CC(=O)c1cc(-c2ccccc2)nc2ccccc12",
    "measurementLabel": "Ki",
    "valueReported": "2000 nM"
  },
  {
    "compound": "COc1ccc(-c2cc(CCC3CCNCC3)c3ccccc3n2)cc1",
    "measurementLabel": "Ki",
    "valueReported": "1300 nM"
  },
  {
    "compound": "Cc1ccc(-c2cc(C(=O)CC3CCNCC3)c3ccccc3n2)cc1",
    "measurementLabel": "Ki",
    "valueReported": "1600 nM"
  },
  {
    "compound": "CN1CCC(CCc2cc(-c3ccccc3)nc3ccccc23)CC1",
    "measurementLabel": "Ki",
    "valueReported": "100 nM"
  },
  {
    "compound": "COc1ccc(-c2cc(C(=O)CC3CCNCC3)c3ccccc3n2)cc1",
    "measurementLabel": "Ki",
    "valueReported": "5000 nM"
  },
  {
    "compound": "O=C(CC1CCNCC1)c1cc(-c2ccc(F)cc2)nc2ccccc12",
    "measurementLabel": "Ki",
    "valueReported": "8000 nM"
  },
  {
    "compound": "c1ccc2c(CCC3CCNCC3)ccnc2c1 [Example 24, 4-[2-(4-piperidyl)-ethyl]-quinoline]",
    "measurementLabel": "Ki",
    "valueReported": "13000 nM"
  },
  {
    "compound": "COc1ccc2nccc(CCC3CCNCC3)c2c1",
    "measurementLabel": "Ki",
    "valueReported": "7000 nM"
  },
  {
    "compound": "c1ccc(-c2cc(CCC3CCNCC3)c3ccccc3n2)cc1",
    "measurementLabel": "Ki",
    "valueReported": "200 nM"
  },
  {
    "compound": "O=C(CC1CCNCC1)c1cc(-c2ccccc2)nc2ccccc12",
    "measurementLabel": "Ki",
    "valueReported": "500 nM"
  },
  {
    "compound": "C=C[C@H]1CNCC[C@H]1CC(=O)c1ccnc2ccc(OC)cc12",
    "measurementLabel": "Ki",
    "valueReported": "16000 nM"
  },
  {
    "compound": "c1ccc(CCN2CCC(CCc3cc(-c4ccccc4)nc4ccccc34)CC2)cc1",
    "measurementLabel": "Ki",
    "valueReported": "500 nM"
  },
  {
    "compound": "Cc1ccc(-c2cc(CCC3CCNCC3)c3ccccc3n2)cc1",
    "measurementLabel": "Ki",
    "valueReported": "600 nM"
  },
  {
    "compound": "O=C(CC1CCNCC1)c1cc(-c2ccc(Cl)cc2)nc2ccccc12",
    "measurementLabel": "Ki",
    "valueReported": "4500 nM"
  },
  {
    "compound": "C=C[C@H]1CNCC[C@H]1CCc1ccnc2ccc(OC)cc12",
    "measurementLabel": "Ki",
    "valueReported": "5000 nM"
  }
]
